Value source: ChEMBL document CHEMBL1126871

Molecular target: Glucocorticoid receptor (Rattus norvegicus)
Experiment: In vivo glucocorticoid profile, depression of body weight gain without altered food consumption in rat at 50 mg/kg peroral dose
Assay type: functional, organism-based
Parameters: dose 50 mg/kg
Weight gain: recorded values

* CC(C)N1C(=O)N(C(C)C)C(=O)C2(CC=C3[C@H](CCC4=Cc5c(cnn5-c5ccc(F)cc5)C[C@@]43C)O2)C1=O | 0
* C[C@]12Cc3cnn(-c4ccccc4)c3C=C1CC[C@@H]1OC3(CC=C12)C(=O)NC(=O)NC3=O | 0
* C=CCN1C(=O)N(CC=C)C(=O)C2(CC=C3[C@H](CCC4=Cc5c(cnn5-c5ccc(F)cc5)C[C@@]43C)O2)C1=O | -58

Next item in the queue.
Task item: GET Weight gain where system = Glucocorticoid receptor (Rattus norvegicus) and item = CCCN1C(=O)N(CCC)C(=O)C2(CC=C3[C@H](CCC4=Cc5c(cnn5-c5ccc(F)cc5)C[C@@]43C)O2)C1=O
Reply: 0
